tested on: NCI-H1792; test: relative viability (nuclei count vs DMSO), 5 days (fraction); higher = more cells survive; conditions: first compound 5 µM
relative viability listing for selected compounds.
Would you mind answering with just the numeric figure?

INSERT INTO results (compound, assayed_system, result_value) VALUES
  ('O=C(O)CCCCC(CCSCc1ccccc1)SCc1ccccc1 (stereo not drawn) [CPI-613] + CC(=O)c1c(C)c2cnc(Nc3ccc(N4CCNCC4)cn3)nc2n(C2CCCC2)c1=O [Palbociclib] (partner 0.5 µM)', 'NCI-H1792', 0.627),
  ('O=C(O)CCCCC(CCSCc1ccccc1)SCc1ccccc1 (stereo not drawn) [CPI-613] + CS(=O)(=O)N1CCN(Cc2cc3nc(-c4cccc5[nH]ncc45)nc(N4CCOCC4)c3s2)CC1 [Pictilisib] (partner 1 µM)', 'NCI-H1792', 0.29);

Turning now to a further record.
Query: Would you kindly share the measured relative viability for O=C(O)CCCCC(CCSCc1ccccc1)SCc1ccccc1 (stereo not drawn) [CPI-613] + Nc1nc2[nH]cc(CCc3ccc(C(=O)N[C@@H](CCC(=O)O)C(=O)O)cc3)c2c(=O)[nH]1 [Pemetrexed] (partner 0.2 µM) ?
Result: 0.744

###

system: NCI-H1944; assay: relative viability (nuclei count vs DMSO), 5 days (fraction); higher = more cells survive; details: first compound 0.002 µM
recorded_metric: relative viability

Query: Reported relative viability, molecule CC(=O)O[C@@]12CO[C@@H]1C[C@H](O)[C@@]1(C)C(=O)[C@H](O)C3=C(C)[C@@H](OC(=O)[C@H](O)[C@@H](NC(=O)OC(C)(C)C)c4ccccc4)C[C@@](O)([C@@H](OC(=O)c4ccccc4)[C@H]21)C3(C)C [Docetaxel] + C[C@]1(O)C[C@@H](c2nc(-c3ccc4ccc(-c5ccccc5)nc4c3)c3c(N)nccn32)C1 [Linsitinib] (partner 1 µM) : ____
Result: 1.18

###

tested on: HCC-44; test: relative viability (nuclei count vs DMSO), 5 days (fraction); higher = more cells survive; conditions: first compound 0.8 µM
# relative viability per entry
Could you keep your reply to the number by itself?

INSERT INTO results (molecule, result_value) VALUES
  ('O=c1[nH]c2ccccc2n1C1CCN(CCCC(c2ccc(F)cc2)c2ccc(F)cc2)CC1 [Pimozide] + CS(=O)(=O)N1CCN(Cc2cc3nc(-c4cccc5[nH]ncc45)nc(N4CCOCC4)c3s2)CC1 [Pictilisib] (partner 1 µM)', 0.565);

Query: So what does the record say about relative viability for O=c1[nH]c2ccccc2n1C1CCN(CCCC(c2ccc(F)cc2)c2ccc(F)cc2)CC1 [Pimozide] + CCNC(=O)c1noc(-c2cc(C(C)C)c(O)cc2O)c1-c1ccc(CN2CCOCC2)cc1 [Luminespib] (partner 0.01 µM) ?
Result: 0.953

Query: Which measured relative viability value corresponds to Cc1cnc(-c2cnc(NCCNc3ccc(C#N)cn3)nc2-c2ccc(Cl)cc2Cl)[nH]1 + C[C@@H](Oc1cc(-c2cnn(C3CCNCC3)c2)cnc1N)c1c(Cl)ccc(F)c1Cl [Crizotinib] (partner 1 µM) ?
Result: 0.774

Query: Please give the measured relative viability for this molecule: Cc1cnc(-c2cnc(NCCNc3ccc(C#N)cn3)nc2-c2ccc(Cl)cc2Cl)[nH]1 + CC(=O)Nc1cccc(-n2c(=O)n(C3CC3)c(=O)c3c(Nc4ccc(I)cc4F)n(C)c(=O)c(C)c32)c1 [Trametinib] (partner 0.02 µM)
Result: 1.01

Query: Endpoint output: relative viability of O=c1[nH]c2ccccc2n1C1CCN(CCCC(c2ccc(F)cc2)c2ccc(F)cc2)CC1 [Pimozide] + Cc1nc(NC(=O)N2CCC[C@H]2C(N)=O)sc1-c1ccnc(C(C)(C)C(F)(F)F)c1 [Alpelisib] (partner 2 µM) . Value?
Result: 0.802

Query: # get_value(readout='relative viability', item= O=c1[nH]c2ccccc2n1C1CCN(CCCC(c2ccc(F)cc2)c2ccc(F)cc2)CC1 [Pimozide] + Nc1ncn([C@H]2C[C@H](O)[C@@H](CO)O2)c(=O)n1 [Decitabine] (partner 2 µM) )
Result: 0.843

Query: What value of measured relative viability is listed for Cc1cnc(-c2cnc(NCCNc3ccc(C#N)cn3)nc2-c2ccc(Cl)cc2Cl)[nH]1 + Cc1cc(Nc2cc(N3CCN(C)CC3)nc(Sc3ccc(NC(=O)C4CC4)cc3)n2)n[nH]1 [Tozasertib] (partner 0.1 µM) ?
Result: 0.676

Query: Item Cc1cnc(-c2cnc(NCCNc3ccc(C#N)cn3)nc2-c2ccc(Cl)cc2Cl)[nH]1 + O=C(c1cc(Cc2n[nH]c(=O)c3ccccc23)ccc1F)N1CCN(C(=O)C2CC2)CC1 [Olaparib] (partner 8 µM) has what recorded relative viability?
Result: 1.04

Query: // query relative viability value for entry O=c1[nH]c2ccccc2n1C1CCN(CCCC(c2ccc(F)cc2)c2ccc(F)cc2)CC1 [Pimozide] + O=C(CCCCCCC(=O)Nc1ccccc1)NO [Vorinostat] (partner 1 µM)
Result: 0.923

Query: Which measured relative viability value corresponds to O=c1[nH]c2ccccc2n1C1CCN(CCCC(c2ccc(F)cc2)c2ccc(F)cc2)CC1 [Pimozide] + C[C@@H](Oc1cc(-c2cnn(C3CCNCC3)c2)cnc1N)c1c(Cl)ccc(F)c1Cl [Crizotinib] (partner 1 µM) ?
Result: 0.743

Query: # input molecule: Cc1cnc(-c2cnc(NCCNc3ccc(C#N)cn3)nc2-c2ccc(Cl)cc2Cl)[nH]1 + C[C@]1(O)C[C@@H](c2nc(-c3ccc4ccc(-c5ccccc5)nc4c3)c3c(N)nccn32)C1 [Linsitinib] (partner 1 µM) ; wanted: its relative viability
Result: 0.681
